Reported IC50 values are given for each entry in this list.
molecular target: AVP-V2 sites (Rattus norvegicus); construct: male rat liver (AVP-V1 sites) or kidney medulla (AVP-V2 sites); from tissue; host or cells: male rat kidney medulla, crude membranes; test: [^3 H]AVP binding to crude membrane preparation of male rat kidney medulla (AVP-V2 sites); conditions: rat kidney medulla membranes, 2 nM [^3 H]AVP; read-out: Receptor Binding Results IC50 (nM) [^3 H]-AVP-V2
Sequence (Q00788 whole entry): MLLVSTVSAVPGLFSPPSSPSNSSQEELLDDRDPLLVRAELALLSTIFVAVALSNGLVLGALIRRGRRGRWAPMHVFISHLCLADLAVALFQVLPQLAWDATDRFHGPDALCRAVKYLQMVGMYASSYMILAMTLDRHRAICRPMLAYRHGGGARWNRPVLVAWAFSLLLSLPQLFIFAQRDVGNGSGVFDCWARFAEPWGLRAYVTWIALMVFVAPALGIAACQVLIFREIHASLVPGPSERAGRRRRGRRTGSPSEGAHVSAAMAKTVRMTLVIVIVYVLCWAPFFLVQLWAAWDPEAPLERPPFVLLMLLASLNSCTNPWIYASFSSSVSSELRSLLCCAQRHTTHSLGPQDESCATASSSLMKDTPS
Square brackets hold non-standard residues; d marks the D form. Peptide text beside a SMILES is read from it. * marks the point of attachment. NMeI = CC[C@H](C)[C@H](NC)C(=O)O; dNMeF = CN[C@H](Cc1ccccc1)C(=O)O; Pip = O=C(O)[C@@H]1CCCCN1; dPip = O=C(O)[C@H]1CCCCN1; Cbz = O=C(OCc1ccccc1)*; OtBu = CC(C)(C)O*

>  <molecule>
CC[C@H](C)[C@@H]1NC(=O)[C@@H](Cc2ccccc2)NC(=O)[C@@H]2CCCCN2C(=O)[C@@H](Cc2ccccc2)N(C)C(=O)[C@@H]2CCCCN2C(=O)[C@H]2CCCCN2C1=O [Example 108] (cyclo(I[dPip][Pip][dNMeF][Pip][dF]))

>  <IC50>
10000 nM

$$$$
>  <molecule>
CC[C@H](C)[C@@H]1NC(=O)[C@@H](Cc2c[nH]c3ccccc23)NC(=O)[C@@H]2CCCN2C(=O)[C@@H](Cc2c[nH]c3ccccc23)NC(=O)[C@H](CCCCNC(=O)OCc2ccccc2)NC(=O)[C@H]2CCCCN2C1=O [Example 29] (cyclo(I[dPip]K(Cbz)[dW]P[dW]))

>  <IC50>
> 10000 nM

$$$$
>  <molecule>
CC[C@H](C)[C@H]1C(=O)N2CCCC[C@@H]2C(=O)N2CCCC[C@H]2C(=O)N(C)[C@H](Cc2ccccc2)C(=O)N2CCC[C@H]2C(=O)N(C)[C@H](Cc2ccccc2)C(=O)N1C [Example 15] (cyclo([NMeI][dPip][Pip][dNMeF]P[dNMeF]))

>  <IC50>
> 10000 nM

$$$$
>  <molecule>
CC[C@H](C)[C@@H]1NC(=O)[C@@H](Cc2ccccc2)NC(=O)[C@@H]2CCCN2C(=O)[C@@H](CC(=O)OC(C)(C)C)NC(=O)[C@@H]2CCCCN2C(=O)[C@H]2CCCCN2C1=O [Example 179] (cyclo(I[dPip][Pip][dD](OtBu)P[dF]))

>  <IC50>
> 10000 nM

$$$$

Origin of the recorded values: patent US5225528A
